- measurement setup: 20.0 µM
endpoint name: relative solubility at 20 uM

molecule	endpoint name	value observed
Cc1ccn(CC(=O)NCc2nccn2CCc2ccccc2)c(=O)c1	relative solubility at 20 uM	1
CCCN(CC1COc2ccccc2O1)C(=O)c1cc(=O)[nH]c2ccc(Cl)cc12 (stereo not given)	relative solubility at 20 uM	0.98
C=CC(=O)N(c1ccc(C(C)C)nc1)C(C(=O)Nc1ccc(OC)cc1C)c1cccnc1 (stereo not given)	relative solubility at 20 uM	0.98
CC1(C)Cc2cccc(OCCNC(=O)c3cc(=O)[nH]c4ccc(Cl)cc34)c2O1	relative solubility at 20 uM	0.97
CN(C(=O)Cn1nnc2ccccc21)c1ccc(Oc2ccc(C(F)(F)F)cn2)cc1	relative solubility at 20 uM	0.98
O=C(Nc1nc2ccc(F)cn2n1)C1CCOc2ccc(Cl)cc21 (stereo not given)	relative solubility at 20 uM	1
Cc1ccncc1NC(=O)Cn1ccc2ccc(Cl)cc21	relative solubility at 20 uM	0.99
O=C1CC(c2cccc(NC(=O)Cc3cncnc3)c2)CN1 (stereo not given)	relative solubility at 20 uM	1
Cc1ccncc1NC(=O)c1cccc(NC(=O)Nc2cccnc2)c1	relative solubility at 20 uM	1
O=C1[C@H](Nc2nccn3cnnc23)CCN1c1cccc(Cl)c1 (stereo in doubt)	relative solubility at 20 uM	1
